target: Aryl hydrocarbon receptor (Homo sapiens); assay: qHTS assay to identify small molecule that activate the aryl hydrocarbon receptor (AhR) signaling pathway (AID 743085); conditions: HepG2 AhR-luc (HG2L7.5c1), luciferase, 24 h; series mostly up to 70.3 µM;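 note: HG2L7.5c1 human HepG2 liver cells with stably integrated DRE-driven firefly reporter; nearly all actives have a fitted effect of over 15% in size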
Results filed as inconclusive are left out. The source made the active and inactive calls. Calls come from the whole dose curve; as a rule, active = well fitted activation curve with a large enough effect in the repeat runs; inconclusive = weak or mixed curves; inactive = no such curve, though single readings can be large or run the other way.
Answer with one of the outcomes active, inactive

Solved cases (4 shown):
C=CC(=O)O	inactive
CN(C)CC/C=C1\c2ccccc2Sc2ccc(Cl)cc21	inactive
COc1cc(OC)c2ccc(=O)oc2c1	inactive
CC(=O)C(C)=O	inactive

Assay result, entry Nc1c(Cl)cc(Cl)cc1[N+](=O)[O-] — outcome?
inactive

Same again, this time with ClC1=C(Cl)C1(Cl)Cl
inactive

Same again, this time with O=C(O)CNC(=O)c1ccccc1I
inactive

Same again, this time with C[C@H](CS)C(=O)N1CCC[C@H]1C(=O)O
inactive

Same again, this time with COc1ccc(-c2cc(C(F)F)nn2-c2ccc(S(N)(=O)=O)cc2)cc1F
inactive

Same again, this time with CCCCCCCCCCCCCOC(=O)CCSCCC(=O)OCCCCCCCCCCCCC
inactive

Same again, this time with CC12CC3CC(C)(C1)CC(N)(C3)C2
inactive
